Cited source for all entries: the supplement of paper PMC10567573

B1: ANKRD9 (parent)
chain: VGAAGSARQELLGDRPRWQRLLGE

variants of: B1; assay: protein stability index of a GFP-peptide fusion (GPS, HEK-293T) (PSI 1-6); higher = more stable; settings: c terminus: a fixed tail appended;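 also: lentivirally expressed fusions sorted by FACS into six bins by GFP to DsRed ratio, PSI derived from sequencing read proportions per bin multiplied by bin number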
// class 0 strictly below 3 in protein stability index; class 1 otherwise

# MUTATION ANNOTATION, LABEL VALUE
records = [
    ("G2Y", "class 0"),
    ("R17I", "class 0"),
    ("G2F", "class 0"),
    ("E24Q", "class 0"),
    ("P16R", "class 1"),
    ("L12W", "class 0"),
    ("L11Y", "class 1"),
    ("R20G", "class 0"),
    ("R20C", "class 0"),
    ("R20T", "class 0"),
    ("E10M", "class 0"),
    ("R20M", "class 0"),
    ("R17E", "class 1"),
    ("L21V", "class 1"),
    ("A7H", "class 1"),
    ("L11W", "class 0"),
    ("A3I", "class 1"),
    ("R17G", "class 1"),
    ("R20N", "class 1"),
    ("D14G", "class 1"),
    ("E24V", "class 0"),
    ("R20I", "class 0"),
    ("D14S", "class 1"),
    ("A7T", "class 1"),
    ("G5I", "class 0"),
    ("G13R", "class 0"),
    ("V1G", "class 1"),
    ("L11T", "class 1"),
    ("W18D", "class 1"),
    ("L11S", "class 1"),
    ("V1E", "class 0"),
    ("W18H", "class 1"),
    ("L12K", "class 1"),
    ("R20K", "class 0"),
    ("R8T", "class 0"),
    ("A3D", "class 1"),
    ("G23E", "class 1"),
    ("L12P", "class 1"),
    ("E24W", "class 0"),
]
